assayProtocol: qHTS of Nrf2 Activators: Hit Validation in Primary Assay; further: nearly all actives have a fitted effect of over 70% in size; further: potency means the concentration at half of the fitted maximal effect
experimentalConditions: Nrf2/ARE reporter cell assay; activation; series mostly up to 46.1 µM
Procedure: Many diseases have some form of oxidative stress injury and ties to inflammation, causing a host of problems for the patient. The antioxidant response element (ARE) plays an important role in alleviating the harmful effects of oxidative stress. […] Quantification of ARE activation after compound treatment was measured by the Steady-Glo Luciferase (R) assay system (Promega) in AREc32_fluc stable cells. […] The plates were measured on a ViewLux plate reader (PerkinElmer) with clear filter.
Hit rate of the full screen: of about 1,100 compounds, about 860 (78%) were called active. Inconclusive results (about 19%) are left out. The set was probably picked from earlier hits. The list shows a part of the results.
measuredParameter: Potency

INSERT INTO assay_data (compound, measuredparameter, datavalue) VALUES
  ('Cc1ccc([N+](=O)[O-])cc1NC(=O)c1ccc(C(C)(C)C)cc1', 'Potency', '4.61 µM (active)'),
  ('Cc1cc(Br)cn2c(Cc3ccccc3)c(-c3ccco3)nc12', 'Potency', '16.4 µM (active)'),
  ('Cc1ccc([N+](=O)[O-])cc1NC(=O)c1ccccc1', 'Potency', '7.31 µM (active)'),
  ('CC(=O)OC1(C(C)=O)CCC2C3CC(C(F)(F)F)C4=CC(=O)CCC4(C)C3CCC21C (configuration not stated)', 'Potency', '4.61 µM (active)'),
  ('COc1ccc(Cl)cc1NC(=O)CSc1c2c(nc3ccccc13)CCC2', 'Potency', '18.4 µM (active)'),
  ('C/C(=N\NC(=O)CSc1nc2ccccc2s1)c1ccco1', 'Potency', '5.17 µM (active)');

###

assayProtocol: qHTS of Nrf2 Activators: Hit Validation in Primary Assay; further: nearly all actives have a fitted effect of over 70% in size; further: potency means the concentration at half of the fitted maximal effect
experimentalConditions: Nrf2/ARE reporter cell assay; activation; series mostly up to 46.1 µM
Procedure: Many diseases have some form of oxidative stress injury and ties to inflammation, causing a host of problems for the patient. The antioxidant response element (ARE) plays an important role in alleviating the harmful effects of oxidative stress. […] Quantification of ARE activation after compound treatment was measured by the Steady-Glo Luciferase (R) assay system (Promega) in AREc32_fluc stable cells. […] The plates were measured on a ViewLux plate reader (PerkinElmer) with clear filter.
Out of some 1,100 compounds screened, about 860 (78%) were called active. Another 19% or so got no clear call; they are omitted. So high a share suggests a set chosen from earlier hits. Some of the results follow.
Entries and their measured Potency follow.
measuredParameter: Potency

INSERT INTO assay_data (compound, measuredparameter, datavalue) VALUES
  ('Cc1ccc(-c2cc(C(F)(F)F)c(C#N)c(SCCC#N)n2)o1', 'Potency', '2.59 µM (active)'),
  ('Cc1ccc(N=C2NC(=O)/C(=C/C=C/c3ccco3)S2)cc1', 'Potency', '2.06 µM (active)'),
  ('COC(=O)c1cc(=O)nc(NN=Cc2ccco2)s1', 'Potency', '0.58 µM (active)'),
  ('O=C(Nc1nc2c(ccc3ccccc32)s1)c1ccco1', 'Potency', '1.16 µM (active)'),
  ('O=C(Nc1ccc2ccccc2c1)c1ccc(Br)o1', 'Potency', '2.91 µM (active)'),
  ('CC1CCc2c(cc(-c3ccccc3)n2-c2ccc(C(=O)NC(C)C)cc2)C1 (stereo not given)', 'Potency', '23.1 µM (active)'),
  ('CSc1c(C#N)c(N)nc2sc(C(=O)c3ccccc3)c(N)c12', 'Potency', '4.61 µM (active)'),
  ('Cc1ccccc1/C=C1\C(=O)Nc2ccc(F)cc21', 'Potency', '5.17 µM (active)'),
  ('O=C1NC(=Nc2ccccc2)S/C1=C\C=C\c1ccco1', 'Potency', '2.31 µM (active)'),
  ('Cc1ccc(S(=O)(=O)c2nc(S(C)(=O)=O)sc2N2CC(C)OC(C)C2)cc1 (stereo not given)', 'Potency', '18.4 µM (active)'),
  ('Cc1ccnc(SCC(=O)c2ccc(Br)cc2)c1C#N', 'Potency', '2.31 µM (active)'),
  ('O=c1c(-c2ccco2)[n+]([O-])c2ccccc2n1OCc1ccccc1', 'Potency', '5.17 µM (active)'),
  ('Clc1nc2sccn2c1/C=N/n1cnc2ccccc21', 'Potency', '2.59 µM (active)'),
  ('O=C(N/N=C/C(Br)=C/c1ccccc1)c1ccc([N+](=O)[O-])cc1', 'Potency', '18.4 µM (active)'),
  ('CC1CN(c2sc(S(C)(=O)=O)nc2S(=O)(=O)c2ccc(Cl)cc2)CC(C)O1 (stereo not given)', 'Potency', '6.51 µM (active)'),
  ('O=C(Nc1nc(-c2ccncc2)cs1)c1ccco1', 'Potency', '4.11 µM (active)'),
  ('O=[N+]([O-])c1cccc(C=NN=Cc2ccccc2O)c1', 'Potency', '8.2 µM (active)'),
  ('CC(=O)Nc1ccc2nc(NC(=O)c3ccco3)sc2c1', 'Potency', '4.11 µM (active)'),
  ('Cc1nc2ccccc2c(=O)n1NCc1cc(Br)cs1', 'Potency', '2.59 µM (active)'),
  ('O=C(CCCCCCC(=O)Nc1ccccc1)NO', 'Potency', '2.31 µM (active)'),
  ('Cc1cccc(NC(=S)NC(=O)c2ccc(Br)o2)c1', 'Potency', '10.3 µM (active)'),
  ('O=[N+]([O-])c1ccccc1C=CC=NN=Cc1ccccc1O', 'Potency', '3.26 µM (active)'),
  ('O=C(CCS(=O)(=O)c1ccccc1)Nc1nc2c(s1)COc1ccccc1-2', 'Potency', '6.51 µM (active)'),
  ('Cc1ccccc1OCC(=O)Nc1ccccc1CO', 'Potency', '6.51 µM (active)'),
  ('O=Cc1c(NCc2ccco2)nc2ccccn2c1=O', 'Potency', '1.64 µM (active)'),
  ('Cc1ccc2c(N)c(C(=O)c3ccccc3)sc2n1', 'Potency', '14.6 µM (active)'),
  ('CC(=O)c1sc2nc(-c3cccs3)cc(C(F)(F)F)c2c1N', 'Potency', '2.59 µM (active)'),
  ('Cc1cc(C)cc(OC(=O)CS(=O)c2ccc(C(F)(F)F)cc2[N+](=O)[O-])c1 (stereo not given)', 'Potency', '18.4 µM (active)'),
  ('CCc1ccc(/C=C/c2c([N+](=O)[O-])c(=O)n(C)c(=O)n2C)cc1', 'Potency', '11.6 µM (active)'),
  ('COC(=O)c1sccc1NC(=O)c1ccc(Br)s1', 'Potency', '7.31 µM (active)');

###

assayProtocol: qHTS of Nrf2 Activators: Hit Validation in Primary Assay; further: nearly all actives have a fitted effect of over 70% in size; further: potency means the concentration at half of the fitted maximal effect
experimentalConditions: Nrf2/ARE reporter cell assay; activation; series mostly up to 46.1 µM
Out of some 1,100 compounds screened, about 860 (78%) were called active. About 19% were inconclusive and are not listed. The set was probably picked from earlier hits. The list shows a part of the results.
measuredParameter: Potency

INSERT INTO assay_data (compoundstructurestring, datavalue) VALUES
  ('O=C(Nc1ccccc1O)c1cccc(NC(=O)c2ccco2)c1', '4.11 µM (active)'),
  ('N/C(=N\OC(=O)c1cccc2ccccc12)c1cccnc1', 'inactive'),
  ('O=C(Nc1cccn2ncnc12)c1cccc(C(F)(F)F)c1', '18.4 µM (active)'),
  ('O=c1cc(-c2cccc(Br)c2)oc2cccc(O)c12', '5.8 µM (active)'),
  ('Nc1ccccc1C=C1Cc2ccccc2C1=O', '3.66 µM (active)'),
  ('CCOc1cc2ccccc2cc1C(=O)Nc1ccccn1', '3.66 µM (active)'),
  ('c1ccc(-c2noc(-c3cccc4ccccc34)n2)cc1', '2.31 µM (active)'),
  ('O=C(Nc1ccc(F)cc1F)c1cc(-c2ccco2)nc2ccccc12', '0.731 µM (active)'),
  ('COc1ccccc1Cc1c(-c2ccco2)nc2ccc(Cl)cn12', '16.4 µM (active)'),
  ('COc1ccc(Cl)cc1C(=O)O/N=C(\N)c1ccccn1', '2.91 µM (active)'),
  ('Cc1ccc(Sc2cnn(-c3ccccc3)c(=O)c2Cl)cc1', 'inactive'),
  ('CC(=O)Nc1nc2cccc([N+](=O)[O-])c2s1', '1.84 µM (active)'),
  ('O=[N+]([O-])c1cccc2ccc(/C=C/c3cccc(Br)c3)nc12', '1.84 µM (active)'),
  ('Cc1ccc(C(=O)Nc2nc(-c3ccco3)c(-c3ccco3)s2)o1', '0.92 µM (active)'),
  ('O=[N+]([O-])c1ccc(/C=N/Nc2ccc3ccccc3c2)o1', '2.91 µM (active)'),
  ('Cn1c(N)c(C(=O)COC(=O)c2nc(Cl)ccc2Cl)c(=O)n(C)c1=O', '1.46 µM (active)'),
  ('COc1ccc(OC)c2sc(NC(=O)CCS(=O)(=O)c3ccccc3)nc12', '3.26 µM (active)'),
  ('O=[N+]([O-])c1cncc([N+](=O)[O-])c1Nc1cccc(O)c1', '14.6 µM (active)'),
  ('Cc1ccc(C(=O)/C=C/c2ccc(-c3ccccc3[N+](=O)[O-])o2)cc1', '2.06 µM (active)'),
  ('O=c1oc2ccc(Br)cc2cc1-c1nc2ccccc2o1', '23.1 µM (active)'),
  ('c1ccc(N/N=C2\CCCc3ccccc32)nc1', '14.6 µM (active)'),
  ('O=C(O)c1ccc(-n2ncc(Cl)c(Cl)c2=O)cc1', '2.91 µM (active)'),
  ('Cc1sc(NC(=O)c2ccco2)c(CN2CCCCC2)c1C', 'inactive'),
  ('COc1cc(C=C(c2nc3ccccc3s2)c2nc3ccccc3s2)ccc1O', '7.31 µM (active)'),
  ('COc1nc2ccc(C)cc2cc1-c1noc(-c2ccccc2)n1', '2.59 µM (active)'),
  ('Cc1ccc(O)c(NC(=O)c2cccc(NC(=O)c3ccco3)c2)c1', '2.59 µM (active)'),
  ('Cc1ccc(C(=O)N/N=C/c2ccc(-c3ccc(Br)cc3[N+](=O)[O-])o2)o1', '5.8 µM (active)'),
  ('O=[N+]([O-])c1ccccc1S(=O)c1ccccc1[N+](=O)[O-]', '16.4 µM (active)');
